- System: Mus musculus
- procedureDetails: Ability to induce tail vein irritation in mice administered intravenously determined by tail vein assay; Activity- clean
- Type: functional, organism-based

>  <entrySmiles>
C/C=C1/NC(=O)[C@H]([C@H](C)O)NC(=O)[C@H](CCN)NC(=O)[C@H](CCCCN)NC(=O)[C@H](CC(=O)O)NC(=O)[C@@H](CCN)NC(=O)[C@@H](NC(=O)C[C@H](O)CCCCCCCCCCC)COC(=O)[C@H]([C@H](O)CCl)NC(=O)[C@H]([C@H](O)C(=O)NC)NC1=O

>  <Activity>
Activity- clean

$$$$
>  <entrySmiles>
C/C=C1/NC(=O)[C@H]([C@H](C)O)NC(=O)[C@H](CCN)NC(=O)[C@H](CCCCN)NC(=O)[C@H](CC(=O)O)NC(=O)[C@@H](CCN)NC(=O)[C@@H](NC(=O)C[C@H](O)CCCCCCCCCCC)COC(=O)[C@H]([C@H](O)CCl)NC(=O)[C@H]([C@H](O)C(=O)NCCCC)NC1=O

>  <Activity>
Activity- clean

$$$$

====

- System: Aspergillus fumigatus
- procedureDetails: Concentration required to inhibit 90-100% of visible fungal growth in Aspergillus fumigatus (WM1) tested in vitro
- Assay type: functional
Measured MIC, listed per entry for reference.

>  <entrySmiles>
C/C=C1/NC(=O)[C@H]([C@@H](C)O)NC(=O)[C@H](CCN)NC(=O)[C@H](CCCCN)NC(=O)[C@H](CC(=O)O)NC(=O)[C@@H](CCN)NC(=O)[C@@H](NC(=O)C[C@H](O)CCCCCCCCCCC)COC(=O)[C@H]([C@H](O)CCl)NC(=O)[C@H]([C@H](O)C(=O)NCC)NC1=O

>  <MIC>
> 20 µg/mL

$$$$
>  <entrySmiles>
C/C=C1\NC(=O)[C@H]([C@H](C)O)NC(=O)[C@H](CCN)NC(=O)[C@H](CCCCN)NC(=O)[C@H](CC(=O)O)NC(=O)[C@@H](CCN)NC(=O)[C@@H](NC(=O)C[C@H](O)CCCCCCCCCCC)COC(=O)[C@H]([C@H](O)CCl)NC(=O)[C@H]([C@H](O)C(=O)NCCC)NC1=O

>  <MIC>
> 20 µg/mL

$$$$
>  <entrySmiles>
C/C=C1/NC(=O)[C@H]([C@H](C)O)NC(=O)[C@H](CCN)NC(=O)[C@H](CCCCN)NC(=O)[C@H](CC(=O)O)NC(=O)[C@@H](CCN)NC(=O)[C@@H](NC(=O)C[C@H](O)CCCCCCCCCCC)COC(=O)[C@H]([C@H](O)CCl)NC(=O)[C@H]([C@H](O)C(=O)O)NC1=O

>  <MIC>
> 20 µg/mL

$$$$

====

- System: Mus musculus
- procedureDetails: Ability to induce tail vein irritation in mice administered intravenously determined by tail vein assay; Activity- clean
- Assay type: functional, organism-based
readoutType: Activity

>  <entrySmiles>
C/C=C1\NC(=O)[C@H]([C@H](C)O)NC(=O)[C@H](CCN)NC(=O)[C@H](CCCCN)NC(=O)[C@H](CC(=O)O)NC(=O)[C@@H](CCN)NC(=O)[C@@H](NC(=O)C[C@H](O)CCCCCCCCCCC)COC(=O)[C@H]([C@H](O)CCl)NC(=O)[C@H]([C@H](O)C(=O)NCCC)NC1=O

>  <resultValue>
Activity- clean

$$$$
>  <entrySmiles>
C/C=C1/NC(=O)[C@H]([C@H](C)O)NC(=O)[C@H](CCN)NC(=O)[C@H](CCCCN)NC(=O)[C@H](CC(=O)O)NC(=O)[C@@H](CCN)NC(=O)[C@@H](NC(=O)C[C@H](O)CCCCCCCCCCC)COC(=O)[C@H]([C@H](O)CCl)NC(=O)[C@H]([C@H](O)C(N)=O)NC1=O

>  <resultValue>
Activity- clean

$$$$
>  <entrySmiles>
C/C=C1/NC(=O)[C@H]([C@H](C)O)NC(=O)[C@H](CCN)NC(=O)[C@H](CCCCN)NC(=O)[C@H](CC(=O)O)NC(=O)[C@@H](CCN)NC(=O)[C@@H](NC(=O)C[C@H](O)CCCCCCCCCCC)COC(=O)[C@H]([C@H](O)CCl)NC(=O)[C@H]([C@H](O)C(=O)NCCO)NC1=O

>  <resultValue>
Activity- clean

$$$$
